Tested on: GOSHI (Cotton)
METHOD SUMMARY: Leaf treatment test, cotton
Format: in vivo, Gossypium
CONDITIONS: treated amount 0.4 kg/ha, 14 days after treatment
OBSERVABLE: degree of damage to the plants (% damage) (%)

>  <COMPOUND>
CC(Oc1ccc(Oc2nc3ccc(Cl)cc3o2)cc1)C(=O)N(C)c1c(F)cccc1F (stereo not shown) [Compound No. 4]

>  <TARGET OR SYSTEM>
GOSHI (Cotton)

>  <RECORDED VALUE>
0

$$$$
>  <COMPOUND>
CC(Oc1ccc(Oc2nc3ccc(Cl)cc3o2)cc1)C(=O)N(C)c1c(F)ccc(F)c1F (stereo not shown) [Compound No. 6]

>  <TARGET OR SYSTEM>
GOSHI (Cotton)

>  <RECORDED VALUE>
0

$$$$
>  <COMPOUND>
COc1ccc(N(C)C(=O)C(C)Oc2ccc(Oc3nc4ccc(Cl)cc4o3)cc2)c(F)c1 (stereo not shown) [Compound No. 11]

>  <TARGET OR SYSTEM>
GOSHI (Cotton)

>  <RECORDED VALUE>
0

$$$$
>  <COMPOUND>
CC(Oc1ccc(Oc2nc3ccc(Cl)cc3o2)cc1)C(=O)N(C)c1cc(F)c(F)cc1F (stereo not shown) [Compound No. 3]

>  <TARGET OR SYSTEM>
GOSHI (Cotton)

>  <RECORDED VALUE>
0

$$$$
>  <COMPOUND>
Cc1ccc(F)c(N(C)C(=O)C(C)Oc2ccc(Oc3nc4ccc(Cl)cc4o3)cc2)c1 (stereo not shown) [Compound No. 7]

>  <TARGET OR SYSTEM>
GOSHI (Cotton)

>  <RECORDED VALUE>
0

$$$$
>  <COMPOUND>
CC(Oc1ccc(Oc2nc3ccc(Cl)cc3o2)cc1)C(=O)N(C)c1ccc(Cl)cc1F (stereo not shown) [Compound No. 8]

>  <TARGET OR SYSTEM>
GOSHI (Cotton)

>  <RECORDED VALUE>
0

$$$$
>  <COMPOUND>
CC(Oc1ccc(Oc2nc3ccc(Cl)cc3o2)cc1)C(=O)N(C)c1ccccc1F (stereo not shown) [Compound No. 1]

>  <TARGET OR SYSTEM>
GOSHI (Cotton)

>  <RECORDED VALUE>
0

$$$$
>  <COMPOUND>
CC(Oc1ccc(Oc2nc3ccc(Cl)cc3o2)cc1)C(=O)N(C)c1ccc(F)cc1F (stereo not shown) [Compound No. 5]

>  <TARGET OR SYSTEM>
GOSHI (Cotton)

>  <RECORDED VALUE>
0

$$$$
>  <COMPOUND>
CCN(C(=O)C(C)Oc1ccc(Oc2nc3ccc(Cl)cc3o2)cc1)c1ccccc1F (stereo not shown) [Compound No. 2]

>  <TARGET OR SYSTEM>
GOSHI (Cotton)

>  <RECORDED VALUE>
0

$$$$
>  <COMPOUND>
CC(Oc1ccc(Oc2nc3ccc(Cl)cc3o2)cc1)C(=O)Nc1ccccc1F (stereo not shown) [control 1, reference compound]

>  <TARGET OR SYSTEM>
GOSHI (Cotton)

>  <RECORDED VALUE>
0

$$$$
>  <COMPOUND>
CCOc1ccc(N(C)C(=O)C(C)Oc2ccc(Oc3nc4ccc(Cl)cc4o3)cc2)c(F)c1 (stereo not shown) [Compound No. 12]

>  <TARGET OR SYSTEM>
GOSHI (Cotton)

>  <RECORDED VALUE>
0

$$$$
>  <COMPOUND>
Cc1ccc(N(C)C(=O)C(C)Oc2ccc(Oc3nc4ccc(Cl)cc4o3)cc2)c(F)c1 (stereo not shown) [Compound No. 10]

>  <TARGET OR SYSTEM>
GOSHI (Cotton)

>  <RECORDED VALUE>
0

$$$$
>  <COMPOUND>
CC(Oc1ccc(Oc2nc3ccc(Cl)cc3o2)cc1)C(=O)N(C)c1cc(F)ccc1F (stereo not shown) [Compound No. 9]

>  <TARGET OR SYSTEM>
GOSHI (Cotton)

>  <RECORDED VALUE>
0

$$$$

###

Listed below: degree of damage to the plants (% damage) values for each entry.
Tested on: TRZAW (Wheat)
METHOD SUMMARY: Leaf treatment test, wheat
Assay type: in vivo, Triticum aestivum L.
CONDITIONS: treated amount 0.025 kg/ha, 14 days after treatment
OBSERVABLE: degree of damage to the plants (% damage) (%)

>  <MOLECULE>
Cc1ccc(F)c(N(C)C(=O)C(C)Oc2ccc(Oc3nc4ccc(Cl)cc4o3)cc2)c1 (stereo not shown)

>  <OUTPUT UNIT>
%

>  <RECORDED VALUE>
0

$$$$
>  <MOLECULE>
CC(Oc1ccc(Oc2nc3ccc(Cl)cc3o2)cc1)C(=O)N(C)c1cc(F)c(F)cc1F (stereo not shown)

>  <OUTPUT UNIT>
%

>  <RECORDED VALUE>
0

$$$$
>  <MOLECULE>
CC(Oc1ccc(Oc2nc3ccc(Cl)cc3o2)cc1)C(=O)N(C)c1cc(F)ccc1F (stereo not shown)

>  <OUTPUT UNIT>
%

>  <RECORDED VALUE>
0

$$$$
>  <MOLECULE>
CC(Oc1ccc(Oc2nc3ccc(Cl)cc3o2)cc1)C(=O)N(C)c1ccc(F)cc1F (stereo not shown)

>  <OUTPUT UNIT>
%

>  <RECORDED VALUE>
0

$$$$
>  <MOLECULE>
CC(Oc1ccc(Oc2nc3ccc(Cl)cc3o2)cc1)C(=O)N(C)c1c(F)cccc1F (stereo not shown)

>  <OUTPUT UNIT>
%

>  <RECORDED VALUE>
0

$$$$
>  <MOLECULE>
CC(Oc1ccc(Oc2nc3ccc(Cl)cc3o2)cc1)C(=O)N(C)c1ccccc1F (stereo not shown)

>  <OUTPUT UNIT>
%

>  <RECORDED VALUE>
0

$$$$
>  <MOLECULE>
COc1ccc(N(C)C(=O)C(C)Oc2ccc(Oc3nc4ccc(Cl)cc4o3)cc2)c(F)c1 (stereo not shown)

>  <OUTPUT UNIT>
%

>  <RECORDED VALUE>
0

$$$$
>  <MOLECULE>
CCOc1ccc(N(C)C(=O)C(C)Oc2ccc(Oc3nc4ccc(Cl)cc4o3)cc2)c(F)c1 (stereo not shown)

>  <OUTPUT UNIT>
%

>  <RECORDED VALUE>
0

$$$$
>  <MOLECULE>
Cc1ccc(N(C)C(=O)C(C)Oc2ccc(Oc3nc4ccc(Cl)cc4o3)cc2)c(F)c1 (stereo not shown)

>  <OUTPUT UNIT>
%

>  <RECORDED VALUE>
0

$$$$
>  <MOLECULE>
CC(Oc1ccc(Oc2nc3ccc(Cl)cc3o2)cc1)C(=O)N(C)c1c(F)ccc(F)c1F (stereo not shown)

>  <OUTPUT UNIT>
%

>  <RECORDED VALUE>
0

$$$$
>  <MOLECULE>
CCN(C(=O)C(C)Oc1ccc(Oc2nc3ccc(Cl)cc3o2)cc1)c1ccccc1F (stereo not shown)

>  <OUTPUT UNIT>
%

>  <RECORDED VALUE>
0

$$$$
>  <MOLECULE>
CC(Oc1ccc(Oc2nc3ccc(Cl)cc3o2)cc1)C(=O)Nc1ccccc1F (stereo not shown) [control 1, reference compound]

>  <OUTPUT UNIT>
%

>  <RECORDED VALUE>
0

$$$$
>  <MOLECULE>
CC(Oc1ccc(Oc2nc3ccc(Cl)cc3o2)cc1)C(=O)N(C)c1ccc(Cl)cc1F (stereo not shown)

>  <OUTPUT UNIT>
%

>  <RECORDED VALUE>
0

$$$$

###

System: PANDI (Fall panicum)
METHOD SUMMARY: Leaf treatment test, fall panicum
Type: in vivo, Panicum dichotomiflorum Michx
CONDITIONS: treated amount 0.025 kg/ha, 14 days after treatment
Quick reference for degree of damage to the plants (% damage) among some compounds
OBSERVABLE: degree of damage to the plants (% damage) (%)

>  <COMPOUND>
CCN(C(=O)C(C)Oc1ccc(Oc2nc3ccc(Cl)cc3o2)cc1)c1ccccc1F (centres unmarked)

>  <RECORDED VALUE>
0

$$$$
>  <COMPOUND>
Cc1ccc(F)c(N(C)C(=O)C(C)Oc2ccc(Oc3nc4ccc(Cl)cc4o3)cc2)c1 (centres unmarked)

>  <RECORDED VALUE>
100

$$$$
>  <COMPOUND>
CC(Oc1ccc(Oc2nc3ccc(Cl)cc3o2)cc1)C(=O)N(C)c1ccccc1F (centres unmarked)

>  <RECORDED VALUE>
100

$$$$
>  <COMPOUND>
CC(Oc1ccc(Oc2nc3ccc(Cl)cc3o2)cc1)C(=O)N(C)c1ccc(Cl)cc1F (centres unmarked)

>  <RECORDED VALUE>
0

$$$$
>  <COMPOUND>
Cc1ccc(N(C)C(=O)C(C)Oc2ccc(Oc3nc4ccc(Cl)cc4o3)cc2)c(F)c1 (centres unmarked)

>  <RECORDED VALUE>
0

$$$$
>  <COMPOUND>
CC(Oc1ccc(Oc2nc3ccc(Cl)cc3o2)cc1)C(=O)N(C)c1ccc(F)cc1F (centres unmarked)

>  <RECORDED VALUE>
40

$$$$
>  <COMPOUND>
CC(Oc1ccc(Oc2nc3ccc(Cl)cc3o2)cc1)C(=O)N(C)c1c(F)ccc(F)c1F (centres unmarked)

>  <RECORDED VALUE>
40

$$$$
>  <COMPOUND>
CCOc1ccc(N(C)C(=O)C(C)Oc2ccc(Oc3nc4ccc(Cl)cc4o3)cc2)c(F)c1 (centres unmarked)

>  <RECORDED VALUE>
0

$$$$
>  <COMPOUND>
CC(Oc1ccc(Oc2nc3ccc(Cl)cc3o2)cc1)C(=O)N(C)c1cc(F)c(F)cc1F (centres unmarked)

>  <RECORDED VALUE>
0

$$$$
>  <COMPOUND>
CC(Oc1ccc(Oc2nc3ccc(Cl)cc3o2)cc1)C(=O)N(C)c1cc(F)ccc1F (centres unmarked)

>  <RECORDED VALUE>
90

$$$$
>  <COMPOUND>
CC(Oc1ccc(Oc2nc3ccc(Cl)cc3o2)cc1)C(=O)N(C)c1c(F)cccc1F (centres unmarked)

>  <RECORDED VALUE>
40

$$$$
